In this section, each of the binders is paired with its reported EC50.
Assayed Target: T1, recombinant cynomolgus monkey CD112R antigen (cynomolgus monkey, UniProt A0A2K5WVV8 1-322)
T1 construct: bought
T1 sequence: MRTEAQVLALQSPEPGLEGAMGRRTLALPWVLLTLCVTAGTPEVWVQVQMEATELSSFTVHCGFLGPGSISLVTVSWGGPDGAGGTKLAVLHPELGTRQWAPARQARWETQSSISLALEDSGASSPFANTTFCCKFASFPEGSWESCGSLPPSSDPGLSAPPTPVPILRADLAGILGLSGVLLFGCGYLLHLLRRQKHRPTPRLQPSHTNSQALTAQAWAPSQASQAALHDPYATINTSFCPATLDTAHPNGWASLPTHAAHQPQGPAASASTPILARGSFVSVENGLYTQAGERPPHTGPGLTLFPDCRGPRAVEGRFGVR
Protocol Notes: ELISA, coated cynomolgus monkey CD112R
Numeric only. Scale: ng/mL

// known answers, use as guide
[[record]]
binder = "Chi-47 (antibody, V domains shown, chimeric) VH: DVKLVESGGGLVKLGGSLKLSCAASGFTFSSYHMSWVRQTPEKRLELVAAINSNVISTYYLDTVKGRFTISRDNAKNTLYLQMSSLKSEDTALYYCARHEDYYGFAMDYWGQGTSVTVSS VL: SIVMTQTPKFLLVSAGDRVTITCKASQSVTNDVAWYQQKPGQSPKLLMYYVSNHYTGVPDRFIGSGYGTDFTFTISTVQAEDLAVYFCQQAYRSPWTFGGGTKLEIK"
observed_value = 3.09

[[record]]
binder = "Chi-53 (antibody, V domains shown, chimeric) VH: DVKLVESGGGLVKLGGSLKLSCAASGFTFSSYHMSWIRQTPEKRLELVAAINSNGINTYYLDTVKGRFTISRDNAKNTLYLQMSSLKSEDTALYYCARHEDYYGFAMDYWGQGTSVTVSS VL: SIVMTQTPKFLLVSAGDRVTITCKASQSVSNDVAWYQEKPGQSPKLLMYYVSHRFTGVPDRFTGSGYGTDFTFTINTVQAEDLAVYFCHQAYRSPWTFGGGTKLEIK"
observed_value = 3.3


Shifting focus to the binder that follows.
Asked: Find the measured EC50 of Chi-63 (antibody, V domains shown, chimeric) VH: DVKLVESGGGLVKLGGSLKLSCAASGFTFSSYHMSWVRQTPEKRLELVAAISRDGDSTYYPDTVKGRFTISRDDAENTLYLQMSSLKSEDTALYYCSRHEDYFGFAMDSWGQGTSVTVSS VL: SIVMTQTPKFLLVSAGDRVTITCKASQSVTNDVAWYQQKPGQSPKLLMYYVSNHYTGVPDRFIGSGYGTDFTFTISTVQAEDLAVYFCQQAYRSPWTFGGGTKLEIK and report it.
Given back: 4.36
